Origin of the recorded values: paper PMC4336329

biological target: human ether-à-go-go-related gene (hERG) potassium channel (human, UniProt Q12809); assay: primary screen, population patch clamp on CHO cells stably expressing hERG; higher = less effect of the substance;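 also: peak tail current of the secondary pulse compared with the same well before compound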
Sequence (Q12809 whole entry, looked up): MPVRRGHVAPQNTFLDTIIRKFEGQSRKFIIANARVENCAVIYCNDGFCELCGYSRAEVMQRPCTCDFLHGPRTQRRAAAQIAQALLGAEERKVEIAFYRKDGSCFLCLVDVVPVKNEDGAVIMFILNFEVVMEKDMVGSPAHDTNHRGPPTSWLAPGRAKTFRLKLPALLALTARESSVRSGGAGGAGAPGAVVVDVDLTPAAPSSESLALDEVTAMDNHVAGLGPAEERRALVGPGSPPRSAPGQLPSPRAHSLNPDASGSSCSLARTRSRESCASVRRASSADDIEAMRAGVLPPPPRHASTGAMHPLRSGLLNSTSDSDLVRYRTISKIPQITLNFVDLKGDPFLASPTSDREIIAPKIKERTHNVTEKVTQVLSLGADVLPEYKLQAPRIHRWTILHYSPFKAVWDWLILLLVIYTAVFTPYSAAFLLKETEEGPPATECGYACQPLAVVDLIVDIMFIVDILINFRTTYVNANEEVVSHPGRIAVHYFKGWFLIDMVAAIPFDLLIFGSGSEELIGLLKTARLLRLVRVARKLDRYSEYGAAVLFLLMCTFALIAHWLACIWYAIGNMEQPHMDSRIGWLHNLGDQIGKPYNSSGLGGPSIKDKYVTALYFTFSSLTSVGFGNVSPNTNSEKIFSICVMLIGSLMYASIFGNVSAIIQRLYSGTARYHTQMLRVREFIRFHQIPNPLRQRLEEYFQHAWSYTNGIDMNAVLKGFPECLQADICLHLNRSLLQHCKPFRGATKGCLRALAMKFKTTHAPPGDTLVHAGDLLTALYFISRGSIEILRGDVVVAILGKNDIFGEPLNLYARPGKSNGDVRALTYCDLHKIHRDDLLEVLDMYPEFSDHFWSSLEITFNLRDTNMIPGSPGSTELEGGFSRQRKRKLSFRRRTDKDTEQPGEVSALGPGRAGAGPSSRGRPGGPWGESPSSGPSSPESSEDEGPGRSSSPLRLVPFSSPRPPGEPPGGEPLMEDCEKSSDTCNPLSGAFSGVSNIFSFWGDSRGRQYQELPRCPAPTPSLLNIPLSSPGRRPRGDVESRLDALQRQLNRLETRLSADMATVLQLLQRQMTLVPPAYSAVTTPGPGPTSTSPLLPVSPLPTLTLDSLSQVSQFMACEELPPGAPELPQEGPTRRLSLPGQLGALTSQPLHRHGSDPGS
Out of some 310,000 compounds screened, about 14,000 (4.5%) showed an effect of 50% or more. Effects have a minus sign here. The sample as a whole holds a higher share of strong results than the screen did.
hERG current change (%, negative = inhibition) at 10uM of -10% or higher: Fulfilled. Under -10%: Not fulfilled.

For orientation, consider the following solved cases.
compound	label-value
O=C(NCCCC1CCCC1)C1CCC(=O)N(Cc2ccccc2F)C1 (centres unmarked)	Fulfilled
CC(=O)Nc1ccc(NCc2ccc(C)s2)cc1	Fulfilled
CN1CCN(c2ccc(S(=O)(=O)N3CCOCC3)cc2NC(=O)COc2ccc(F)cc2Cl)CC1	Not fulfilled
COc1ccc(Cl)cc1NC(=O)CCS(=O)(=O)c1ccc(Br)cc1	Fulfilled
O=C(NCCc1ccccc1Cl)C1CCC(=O)N(CCCc2ccccc2)C1 (centres unmarked)	Not fulfilled

Check the entry O=C(NCCCc1ccccc1)C1CCC(=O)N(CCc2ccc(Cl)cc2)C1 (centres unmarked) : does hERG current change (%, negative = inhibition) at 10uM equal or exceed -10%?
Not fulfilled

Check the entry `NS(=O)(=O)c1ccc(CCNC(=O)[C@@H]2CCCN2S(=O)(=O)c2ccccc2F)cc1` : does hERG current change (%, negative = inhibition) at 10uM equal or exceed -10%?
Fulfilled

Check the entry CC(=O)NCCCC(=O)NN1C(=S)N(Cc2ccccc2)C(=O)C1CC(=O)Nc1cccc(C)c1 (centres unmarked) : does hERG current change (%, negative = inhibition) at 10uM equal or exceed -10%?
Fulfilled

Check the entry `O=C(O)C1(P(=O)(c2ccccc2)c2ccccc2)CCC1` : does hERG current change (%, negative = inhibition) at 10uM equal or exceed -10%?
Fulfilled

Check the entry `Cl.Clc1ccccc1CSc1nnc([C@@H]2CCCN2)o1` : does hERG current change (%, negative = inhibition) at 10uM equal or exceed -10%?
Fulfilled

Check the entry `CCc1ccccc1OCC(=O)Nc1cc(S(=O)(=O)N(CC)CC)ccc1N1CCOCC1` : does hERG current change (%, negative = inhibition) at 10uM equal or exceed -10%?
Fulfilled

Check the entry `Cc1nc(SCC(=O)N2CCOCC2)c2c(C)c(C)sc2n1` : does hERG current change (%, negative = inhibition) at 10uM equal or exceed -10%?
Fulfilled

Check the entry O=C(NCCN1CCCC1=O)C1CCC(=O)N(CCc2ccc(Cl)cc2)C1 (centres unmarked) : does hERG current change (%, negative = inhibition) at 10uM equal or exceed -10%?
Fulfilled
